Reported melting point values for the following compounds.

Let me know recorded melting point for COc1cc(COc2nn(C)cc2C(C)O)ccc1OCc1nc(-c2ccccc2)oc1C (stereo not shown) , thanks.
94 to 95 °C

Report melting point, nothing else, for this compound: CCOC(=O)c1cn(Cc2ccccc2)nc1OCc1ccc(OC)c(OCc2nc(-c3ccco3)oc2C)c1
147 to 148 °C

Consider the compound CCOC(=O)c1ccc(-c2nc(COc3ccc(COc4nn(-c5ccccc5)cc4/C=C\c4csc(CC)n4)cc3OC)c(C)o2)o1 [Example 244 (Z form)] and give its recorded melting point.
133 to 135 °C

Entry CCOP(=O)(/C=C/c1cn(-c2ccccc2)nc1OCc1ccc(OCc2nc(/C=C/C(=O)O)oc2C)c(OC)c1)OCC needs its melting point filled in; supply it.
89 to 90 °C

Supply reported melting point belonging to this compound: CCOP(=O)(OCC)/C(O)=C/c1cn(-c2ccccc2)nc1OCc1ccc(OCc2nc(-c3ccco3)oc2C)c(OC)c1
147 to 149 °C

Supply recorded melting point for COC(=O)c1ccccc1-c1nc(COc2ccc(COc3nn(-c4ccccc4)cc3C=O)cc2OC)c(C)o1 here.
134 to 135 °C

Let me know recorded melting point for COc1cc(COc2nn(Cc3ccccc3)cc2C(=O)O)ccc1OCc1nc(-c2ccccc2)oc1C , thanks.
162 to 163 °C

----------
Entries and their melting point

Observe how each entry below is paired with its result.
- COMPOUND: "COc1cc(COc2nn(-c3ccccc3)cc2C=O)ccc1OCc1nc(N2CCOCC2)sc1C"
  MEASURED: "149 to 150 °C"
- COMPOUND: "CCOC(=O)Cc1cccc(-c2nc(COc3ccc(COc4nn(-c5ccccc5)cc4C=O)cc3OC)c(C)o2)c1"
  MEASURED: "145 to 146 °C"
- COMPOUND: "COc1cc(COc2nn(-c3ccccc3)cc2C(=O)O)ccc1OCc1nc(-c2ccccc2)oc1C"
  MEASURED: "209 to 210 °C"

// below: melting point requested for another compound
Using known records, supply melting point for COc1cc(COc2nn(-c3ccccc3)cc2/C=C\[S+](C)[O-])ccc1OCc1nc(-c2ccco2)oc1C (stereo not shown) [Example 128 (Z form)]
180 to 181 °C

----------
Known melting point of a selection of molecules

- MOLECULE: "COc1cc(COc2nn(-c3ccccc3)cc2/C=C/c2nnco2)ccc1OCc1nc(-c2ccco2)oc1C [Example 118]"
  MEASURED: "162 to 163 °C"
- MOLECULE: "COc1cc(COc2nn(-c3ccccc3)cc2/C=C/c2cnco2)ccc1OCc1nc(-c2ccco2)oc1C [Example 114]"
  MEASURED: "137 to 138 °C"
- MOLECULE: "CCOP(=O)(/C=C/c1cn(-c2ccccc2)nc1OCc1ccc(OCc2nc(-c3ccccc3)cn2C)c(OC)c1)OCC"
  MEASURED: "144 to 145 °C"

// Input: COc1cc(COc2nn(-c3ccccc3)cc2/C=C/c2csc(C)n2)ccc1OCc1nc(-c2ccco2)oc1C [Example 150 (E form)] . Output its melting point only.
111 to 112 °C

Give the reported melting point for this molecule. COc1cc(COc2nn(-c3ccccc3)cc2/C=C/CO)ccc1OCc1nc(-c2ccco2)oc1C [Example 108]
120 to 121 °C

Note down melting point recorded for COc1cc(COc2nn(-c3ccccc3)cc2/C=C/c2nnc(C)o2)ccc1OCc1nc(-c2ccco2)oc1C [Example 125]
186 to 187 °C

Write down melting point measured for item Cc1cc(COc2nn(Cc3ccccc3)cc2C=O)ccc1OCc1nc(-c2ccco2)oc1C [Example 63]
121 to 122 °C

Look up and state reported melting point for Cc1oc(-c2ccccc2)nc1COc1ccc(COc2nn(Cc3ccccc3)cc2C=O)cc1 [Example 22]
133 to 134 °C

Return melting point (reported value) for this molecule: COc1cc(COc2nn(-c3ccccc3)cc2/C=C/c2nc(N3CCN(C(=O)OC(C)(C)C)CC3)sc2C)ccc1OCc1nc(-c2ccc(CC(=O)O)cc2)oc1C [Example 381]
119 to 120 °C

Specify measured melting point for CCc1nc(/C=C\c2cn(-c3ccccc3)nc2OCc2ccc(OCc3nc(N4CCOCC4)sc3C)c(OC)c2)cs1 [Example 232 (Z form)] .
112 to 114 °C

Identify measured melting point associated with CCc1nnc(/C=C/c2cn(-c3ccccc3)nc2OCc2ccc(OCc3nc(-c4ccco4)oc3C)c(OC)c2)o1 [Example 126]
183 to 184 °C

----------
melting point values, listed per item

- COMPOUND: "CCOP(=O)(/C=C/c1cn(-c2ccccc2)nc1OCc1ccc(OCc2sc(-c3ccccc3)nc2C)c(OC)c1)OCC"
  REPORTED PROPERTY: "melting point"
  MEASURED: "113 to 114 °C"
- COMPOUND: "COc1cc(COc2nn(-c3ccccc3)cc2C=O)ccc1OCc1nc(-c2ccccc2)oc1C"
  REPORTED PROPERTY: "melting point"
  MEASURED: "142 to 143 °C"
- COMPOUND: "CCc1nc(/C=C/c2cn(-c3ccccc3)nc2OCc2ccc(OCc3nc(-c4cccc(C(=O)O)c4)oc3C)c(OC)c2)cs1"
  REPORTED PROPERTY: "melting point"
  MEASURED: "190 to 191 °C"
- COMPOUND: "CCOP(=O)(/C=C/c1cn(-c2ccccc2)nc1OCc1ccc(OCc2nc(-c3ccccc3)sc2C)c(OC)c1)OCC"
  REPORTED PROPERTY: "melting point"
  MEASURED: "110 to 111 °C"
- COMPOUND: "Cc1oc(-c2ccco2)nc1COc1cccc(COc2nn(Cc3ccccc3)cc2C=O)c1"
  REPORTED PROPERTY: "melting point"
  MEASURED: "135 to 136 °C"
- COMPOUND: "COc1cc(COc2nn(-c3ccccc3)cc2/C=C2\\SC(=O)N(C)C2=O)ccc1OCc1nc(-c2ccco2)oc1C"
  REPORTED PROPERTY: "melting point"
  MEASURED: "215 to 216 °C"

// fetch melting point given entry COc1cc(COc2nn(C)cc2C(=O)O)ccc1OCc1nc(-c2ccccc2)oc1C
169 to 170 °C

Give melting point for COc1cc(COc2cc(CCc3ccccn3)n(-c3ccccc3)n2)ccc1OCc1nc(-c2ccco2)oc1C
104 to 105 °C

Consider the compound COc1cc(COc2nn(-c3ccccc3)cc2/C=C/C(=O)O)ccc1OCc1nc(-c2ccccc2)oc1C . State its measured melting point.
188 to 189 °C

Please report melting point for the following compound: COc1cc(COc2nn(Cc3ccccc3)cc2C(N)=O)ccc1OCc1nc(-c2ccco2)oc1C
160 to 161 °C

// Input: COc1cc(COc2nn(-c3ccccc3)cc2/C=C\c2csc(C)n2)ccc1OCc1nc(-c2ccco2)oc1C [Example 150 (Z form)] . Output its melting point only.
164 to 165 °C

Assign melting point to the following record: COc1cc(COc2nn(-c3ccc(C(F)(F)F)cc3)cc2/C=C/C(=O)OCOC(=O)C(C)(C)C)ccc1OCc1nc(-c2ccccc2)oc1C
131 to 132 °C

Look up and state reported melting point for COc1cc(CC(=O)Nc2nn(-c3ccccc3)cc2C=O)ccc1OCc1nc(-c2ccccc2)oc1C
156 to 158 °C

Note melting point for the compound shown: COc1cc(COc2cc(C(=O)O)n(-c3ccccc3)n2)ccc1OCc1nc(-c2ccccc2)oc1C
192 to 193 °C

----------
REPORTED PROPERTY: melting point

A selection of reference data follows.
- COMPOUND: "CCc1nc(/C=C/c2cn(-c3ccccc3)nc2OCc2ccc(OCc3nc(-c4ccc(C(=O)O)o4)oc3C)c(OC)c2)cs1 [Example 242]"
  melting point: "154 to 155 °C"
- COMPOUND: "COc1cc(COc2nn(C)cc2C=O)ccc1OCc1nc(-c2ccco2)oc1C [Example 177]"
  melting point: "155 to 156 °C"

Please examine the following record next.
Report melting point, nothing else, for this compound: COc1cc(COc2nn(-c3ccccc3)cc2/C=C/C(N)=S)ccc1OCc1nc(-c2ccco2)oc1C [Example 184]
129 to 131 °C

----------
Catalogue of melting point readings, one per entry.

# example entries with known answers
- COMPOUND: "CCOC(=O)c1cn(Cc2ccccc2)nc1OCc1ccc(OCc2nc(-c3ccco3)oc2C)nc1 [Example 40]"
  melting point: "140 to 141 °C"
- COMPOUND: "COc1cc(COc2nn(Cc3ccccc3)cc2C=O)ccc1OCc1nc(-c2ccco2)oc1C [Example 16]"
  melting point: "139 to 140 °C"
- COMPOUND: "CCc1nc(/C=C/c2cn(-c3ccccc3)nc2OCc2ccc(OCc3nc(-c4cccc(C#N)c4)oc3C)c(OC)c2)cs1 [Example 372]"
  melting point: "138 to 140 °C"

Provide only the value of recorded melting point for Cc1oc(-c2ccco2)nc1COc1ccc(COc2nn(Cc3ccccc3)cc2C(=O)O)cc1-c1ccccc1 [Example 57]
181 to 182 °C

Answer with the recorded melting point of COC(=O)c1cc(-c2nc(COc3ccc(COc4nn(-c5ccccc5)cc4C=O)cc3OC)c(C)o2)ccc1OC [Example 256] only.
165 to 166 °C

Answer with the recorded melting point for the compound listed here: CCn1cnc(/C=C/c2cn(-c3ccccc3)nc2OCc2ccc(OCc3nc(-c4ccc(CC(=O)O)cc4)oc3C)c(OC)c2)c1 [Example 344]
194 to 196 °C

Return melting point for the following compound: CCOP(=O)(/C=C/c1cn(-c2ccccc2)nc1OCc1ccc(OCc2nc(-c3ccc(OC)c(C(=O)O)c3)oc2C)c(OC)c1)OCC [Example 252]
171 to 172 °C
